Reference source for all entries: patent US9550782B2

# systemName: human recombinant adrenergic α2A receptor (Homo sapiens)
# Construct: expressed in transfected cells; host or cells: insect Sf9 cells
# assayText: Radioligand binding, adrenergic α2A ([3H]MK-912)
# measurementParameters: 0.1 μM compound; [3H]MK-912; 0.1 µM
measuredProperty: Percentage inhibition of ligand binding, Adrenergic α2A (%)

1. Cc1cnc2c(c1)c1c(n2CC(O)c2ccc(F)cc2)CCN(C)C1 (single isomer, unassigned) [136b] ... 21
2. Cc1ccc2c(c1)c1c(n2CC(OC(=O)C(C)(C)C)c2ccncc2)CCN(C)C1 (single isomer, unassigned) [130b] ... 31
3. Cc1ccc2c(c1)c1c(n2CC(C)(OC(=O)C(C)C)c2cccnc2)CCN(C)C1 (single isomer, unassigned) [146b] ... 21

a = Cc1ccc2c(c1)c1c(n2CC(O)c2ccncc2Cl)CCN(C)C1 (single isomer, unassigned) [135b]
b = Cc1cnc2c(c1)c1c(n2CC(N)c2ccc(C#N)cc2)CCNC1 (single isomer, unassigned) [160a]
Request: Form: Entry with minimum Percentage inhibition of ligand binding, Adrenergic α2A (choose one): a / b I would appreciate it if you answered with the label of your choice.
Result: b

----------
# systemName: human recombinant adrenergic α2B receptor (Homo sapiens, UniProt P18089)
# Construct: expressed in transfected cells; host or cells: CHO-K1
# Sequence (P18089 1-450): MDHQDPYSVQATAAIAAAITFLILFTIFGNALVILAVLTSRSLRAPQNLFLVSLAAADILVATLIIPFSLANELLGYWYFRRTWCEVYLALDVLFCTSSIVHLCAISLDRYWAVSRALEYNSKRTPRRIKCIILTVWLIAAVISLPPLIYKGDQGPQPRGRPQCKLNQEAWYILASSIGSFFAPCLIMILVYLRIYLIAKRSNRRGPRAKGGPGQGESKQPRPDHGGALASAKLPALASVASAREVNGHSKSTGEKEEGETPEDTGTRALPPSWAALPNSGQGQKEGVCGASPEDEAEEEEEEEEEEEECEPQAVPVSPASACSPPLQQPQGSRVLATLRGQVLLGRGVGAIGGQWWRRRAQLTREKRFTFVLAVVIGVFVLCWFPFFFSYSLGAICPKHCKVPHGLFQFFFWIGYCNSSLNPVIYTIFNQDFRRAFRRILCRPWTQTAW
# assayText: Radioligand binding, adrenergic α2B ([3H]Rauwolscine)
# measurementParameters: compound at 0.03 μM, repeat datapoints each shown, 0.03 µM
measuredProperty: Percentage inhibition of ligand binding, Adrenergic α2B (0.03 μM) (%)

// worked examples, Percentage inhibition of ligand binding, Adrenergic α2B (0.03 μM) included
1) CN1CCc2c(n(CC(O)c3ccncc3)c3ccc(Cl)cc23)C1 (single isomer, unassigned) [41b] ... 50
2) CN1CCc2c(n(CC(C)(O)c3cccnc3)c3ccc(Cl)cc23)C1 (single isomer, unassigned) [28b] ... 37
3) Cc1ccc2c(c1)c1c(n2CC(OC(=O)C(N)C(C)C)c2ccncc2)CCN(C)C1 (single isomer, unassigned) [25a] ... 54

P = CN1CCc2c(c3cccc(Br)c3n2CC(O)c2ccncc2)C1 (single isomer, unassigned) [48a]
Q = Cc1cnc2c(c1)c1c(n2CCc2ccc(C)nc2)CCN2CCCC12 (centres unmarked) [74b]
R = Cc1ccc2c(c1)c1c(n2CC(O)c2ccncc2)CC2CCCN2C1 (single isomer, unassigned) [76a]
Request: Order the records so the highest Percentage inhibition of ligand binding, Adrenergic α2B (0.03 μM) appears first and the lowest last. List the labels in the requested order.
Result: R, P, Q

a = CN1CCc2c(n(CC(O)c3ccncc3)c3ccc(Cl)cc23)C1 (single isomer, unassigned) [41a]
b = CCC1c2c(c3cc(C)ccc3n2CC(O)c2ccncc2)C2CCN1C2 (single isomer, unassigned) [36a]
Request: Form: Entry with minimum Percentage inhibition of ligand binding, Adrenergic α2B (0.03 μM) (choose one): a / b I would appreciate it if you answered with the label of your choice.
Result: a
(a: 14%, b: 33%)

----------
# systemName: human recombinant adrenergic α2A receptor (Homo sapiens)
# Construct: expressed in transfected cells; host or cells: insect Sf9 cells
# Sequence (P08913 1-465): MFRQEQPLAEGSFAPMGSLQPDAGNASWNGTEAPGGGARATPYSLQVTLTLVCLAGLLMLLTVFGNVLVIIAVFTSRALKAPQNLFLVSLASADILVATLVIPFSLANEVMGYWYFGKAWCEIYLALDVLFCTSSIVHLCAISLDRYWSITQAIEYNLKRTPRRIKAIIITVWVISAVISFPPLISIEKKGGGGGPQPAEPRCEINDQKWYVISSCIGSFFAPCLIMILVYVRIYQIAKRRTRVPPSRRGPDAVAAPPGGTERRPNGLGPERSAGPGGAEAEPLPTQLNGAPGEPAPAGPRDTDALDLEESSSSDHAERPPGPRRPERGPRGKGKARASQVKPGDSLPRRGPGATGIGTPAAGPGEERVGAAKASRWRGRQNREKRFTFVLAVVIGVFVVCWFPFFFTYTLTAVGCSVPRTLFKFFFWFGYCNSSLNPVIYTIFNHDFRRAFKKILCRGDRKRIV
# assayText: Radioligand binding, adrenergic α2A ([3H]MK-912)
# measurementParameters: compound at 0.1 μM; [3H]MK-912; repeat datapoints each shown; 0.1 µM
measuredProperty: Percentage inhibition of ligand binding, Adrenergic α2A (0.1 μM) (%)

// worked examples, Percentage inhibition of ligand binding, Adrenergic α2A (0.1 μM) included
1) Cc1cnc2c(c1)c1c(n2CC(C)(O)c2cccnc2)CCN2CCCC12 (single isomer, unassigned) [26d] ... 0
2) Cc1ccc2c(c1)c1c(n2CC(O)c2ccncc2)CC2CCCCN2C1 (racemic) [75d] ... 49

P = OC(Cn1c2c(c3cccnc31)CN1CCCC1C2)c1ccncc1 (single isomer, unassigned) [37d]
Q = Cc1cnc2c(c1)c1c(n2CCc2ccc(C)nc2)CCN2CCCC12 (stereo not shown) [74b]
R = Cc1ccc2c(c1)c1c(n2CC(C)(O)c2cccnc2)CN(C)CC1 (stereo not shown) [14b]
Request: # rank by Percentage inhibition of ligand binding, Adrenergic α2A (0.1 μM), ascending (min first) List the labels in the requested order.
Result: R, P, Q
(R: −6%, P: 8%, Q: 14%)

1 = Cc1ccc2c(c1)c1c(n2CC(O)c2ccncc2)CC2CCCN2C1 (single isomer, unassigned) [76b]
2 = CN1CCc2c(n(CC(O)c3ccncc3)c3ccc(Cl)cc23)C1 (single isomer, unassigned) [41b]
Request: API: POST /compare with 1 and 2 ; response names the item with higher Percentage inhibition of ligand binding, Adrenergic α2A (0.1 μM). I would appreciate it if you answered with the label of your choice.
Result: 1
(1: 18%, 2: 8%)

----------
# systemName: human recombinant adrenergic α1D receptor (Homo sapiens)
# Construct: expressed in transfected cells; host or cells: HEK-293
# Sequence (P25100 1-572): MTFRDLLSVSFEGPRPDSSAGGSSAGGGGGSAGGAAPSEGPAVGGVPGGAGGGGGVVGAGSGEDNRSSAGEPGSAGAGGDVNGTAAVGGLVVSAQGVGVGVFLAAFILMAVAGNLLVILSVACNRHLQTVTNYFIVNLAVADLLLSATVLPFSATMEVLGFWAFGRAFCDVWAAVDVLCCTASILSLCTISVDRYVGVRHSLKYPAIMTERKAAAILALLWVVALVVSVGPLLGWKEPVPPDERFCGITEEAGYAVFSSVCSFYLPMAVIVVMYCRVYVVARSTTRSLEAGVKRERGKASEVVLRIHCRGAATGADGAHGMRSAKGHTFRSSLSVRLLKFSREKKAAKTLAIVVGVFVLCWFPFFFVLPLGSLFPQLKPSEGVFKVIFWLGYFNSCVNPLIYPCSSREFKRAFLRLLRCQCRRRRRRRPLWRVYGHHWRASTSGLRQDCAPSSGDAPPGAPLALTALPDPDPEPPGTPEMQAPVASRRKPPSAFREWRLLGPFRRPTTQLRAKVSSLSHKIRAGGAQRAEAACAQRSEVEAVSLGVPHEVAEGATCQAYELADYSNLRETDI
# assayText: Radioligand binding, adrenergic α1D ([3H]Prazosin)
# measurementParameters: compound at 0.1 μM, 0.1 µM
measuredProperty: Percentage inhibition of ligand binding, Adrenergic α1D (%)

P = Cc1ccc2c(c1)c1c(n2CC(C)c2ccc(C)nc2)CCN(C)C1 (single isomer, unassigned) [289a]
Q = CC(Cn1c2c(c3ccccc31)CN(C)CC2)c1ccc(F)cc1 (single isomer, unassigned) [272a]
R = CC(Cn1c2c(c3ccccc31)CN(C)CC2)c1ccc(F)cc1 (single isomer, unassigned) [272b]
S = Cc1ccc2c(c1)c1c(n2CC(C)c2ccc(F)cc2)CCN(C)C1 (single isomer, unassigned) [288a]
T = Cc1ccc2c(c1)c1c(n2CC(C)c2ccc(C)nc2)CCN(C)C1 (single isomer, unassigned) [289b]
Request: Please put the entries in order of rising Percentage inhibition of ligand binding, Adrenergic α1D. List the labels in the requested order.
Result: T, Q, R, P, S
